These data points were gathered from patent US20240270846A1.

target_entity: T1, biotin-labeled cynomolgus monkey CD137 fused to human IgG1 Fc fragment (cynomolgus monkey, UniProt Q07011 24-186 (human entry), limits assumed, biotin-labeled)
T1 construct: also called cyno CD137-Fc; not shown: human IgG1 Fc fragment
T1 chain: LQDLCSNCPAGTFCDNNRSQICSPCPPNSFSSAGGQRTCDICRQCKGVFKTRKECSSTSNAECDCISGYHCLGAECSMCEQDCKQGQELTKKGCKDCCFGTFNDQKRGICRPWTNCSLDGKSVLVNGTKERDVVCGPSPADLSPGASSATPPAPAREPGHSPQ
assay_notes: bead ELISA; RLU on cyno CD137-Fc divided by RLU on human Fc
recorded_metric: S/N ratio cyno CD137-Fc/Fc
Just the number, please, no unit after it.

Example results:
DADU01_3#018 (antibody, human IgG1, V domains shown, IgG: VH joined to human IgG1 CH1-Fc; also called dBBDu123) VH: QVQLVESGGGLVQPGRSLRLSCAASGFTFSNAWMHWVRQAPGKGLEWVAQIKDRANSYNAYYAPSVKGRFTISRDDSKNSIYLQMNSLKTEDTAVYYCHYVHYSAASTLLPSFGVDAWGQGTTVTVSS VL: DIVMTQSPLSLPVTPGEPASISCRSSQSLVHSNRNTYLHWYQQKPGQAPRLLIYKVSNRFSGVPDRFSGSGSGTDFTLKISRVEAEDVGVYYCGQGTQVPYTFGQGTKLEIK ... 3.27
DXDU01_3#051 (antibody, human IgG1, V domains shown, IgG: VH joined to human IgG1 CH1-Fc; also called dBBDu127) VH: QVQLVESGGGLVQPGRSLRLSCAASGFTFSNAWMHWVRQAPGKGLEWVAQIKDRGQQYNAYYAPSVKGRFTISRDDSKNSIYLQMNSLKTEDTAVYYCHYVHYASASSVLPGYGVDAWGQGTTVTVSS VL: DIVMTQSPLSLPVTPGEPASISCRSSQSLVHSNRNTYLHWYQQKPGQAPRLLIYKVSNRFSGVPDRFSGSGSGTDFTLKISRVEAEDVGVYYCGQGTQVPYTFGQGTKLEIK ... 3.73
DXDU01_3#094 (antibody, human IgG1, V domains shown, IgG: VH joined to human IgG1 CH1-Fc; also called dBBDu121) VH: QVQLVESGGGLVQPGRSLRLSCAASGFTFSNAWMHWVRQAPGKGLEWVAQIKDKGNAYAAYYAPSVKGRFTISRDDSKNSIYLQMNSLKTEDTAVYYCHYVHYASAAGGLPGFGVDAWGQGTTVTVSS VL: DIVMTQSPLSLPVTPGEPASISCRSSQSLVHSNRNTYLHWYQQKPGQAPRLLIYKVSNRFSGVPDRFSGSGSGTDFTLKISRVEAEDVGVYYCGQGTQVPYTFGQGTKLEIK ... 8.09

Turning to the following binder.
Request: GET /values?readout=S/N ratio cyno CD137-Fc/Fc&item= DXDU01_3#072 (antibody, human IgG1, V domains shown, IgG: VH joined to human IgG1 CH1-Fc; also called dBBDu122) VH: QVQLVESGGGLVQPGRSLRLSCAASGFTFSNAWMHWVRQAPGKGLEWVAQIKDRSQLYAAYYAPSVKGRFTISRDDSKNSIYLQMNSLKTEDTAVYYCHYVHYASASTVLGAYGVDAWGQGTTVTVSS VL: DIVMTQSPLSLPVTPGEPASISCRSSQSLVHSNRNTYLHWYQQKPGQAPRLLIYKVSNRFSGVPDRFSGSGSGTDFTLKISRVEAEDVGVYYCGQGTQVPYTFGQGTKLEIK
Result: 1.56
